# Test system: 435261-313-R-J1-PDC complex spheroid viability
# Assay method text: Anticancer human tumor 435261-313-R-J1-PDC patient-derived colon adenocarcinoma cell line growth inhibition [GQUAD]
# Condition context: second compound 0.0316 µM; first compound 3.16 µM; stronger effect = lower value
Please note: viability, T/C exactly at 60% is no (0). Only values below 60% get yes (1).

Compound: O=c1[nH]cc(F)c(=O)[nH]1 + CN(C)c1ccc(Nc2c3ccc(NC(=O)CCN4CCCC4)cc3nc3cc(NC(=O)CCN4CCCC4)ccc23)cc1
System tested: 435261-313-R-J1-PDC complex spheroid viability
Group label: no (0)
//
Compound: C=CC(=O)N1CCN(c2nc(=O)n(-c3c(C)ccnc3C(C)C)c3nc(-c4c(O)cccc4F)c(F)cc23)C(C)C1 (stereo unspecified) + Cc1cnc(CNC(=O)c2c(=O)c3ccc(N4CCCN(C)CC4)nc3n3c2sc2ccccc23)cn1
System tested: 435261-313-R-J1-PDC complex spheroid viability
Group label: no (0)
//
Compound: COc1ccc([C@@H](O)c2cc(-c3ncnc4cc(N5CCOCC5)ccc34)c(F)cc2Cl)nn1 + CN(C)c1ccc(Nc2c3ccc(NC(=O)CCN4CCCC4)cc3nc3cc(NC(=O)CCN4CCCC4)ccc23)cc1
System tested: 435261-313-R-J1-PDC complex spheroid viability
Group label: yes (1)

Exam item: Field: below-cutoff. Rule: recorded viability, T/C strictly less than 60%. Subject: O=C(c1cc(Cc2n[nH]c(=O)c3ccccc23)ccc1F)N1CCN(C(=O)C2CC2)CC1 + Cc1cnc(CNC(=O)c2c(=O)c3ccc(N4CCCN(C)CC4)nc3n3c2sc2ccccc23)cn1
Marked response: no (0)

Exam item: Also CC(=O)O[C@H]1C(=O)[C@@]2(C)[C@H]([C@H](OC(=O)c3ccccc3)[C@]3(O)C[C@H](OC(=O)[C@H](O)[C@@H](NC(=O)c4ccccc4)c4ccccc4)C(C)=C1C3(C)C)[C@]1(OC(C)=O)CO[C@@H]1C[C@@H]2O + Cc1cnc(CNC(=O)c2c(=O)c3ccc(N4CCCN(C)CC4)nc3n3c2sc2ccccc23)cn1 , if possible.
Marked response: yes (1)

Exam item: Also CC1COCCN1c1cc(C2(O)CC3CCC(C2)O3)c2cnn(-c3ccn[nH]3)c2n1 (stereo unspecified) + CN(C)c1ccc(Nc2c3ccc(NC(=O)CCN4CCCC4)cc3nc3cc(NC(=O)CCN4CCCC4)ccc23)cc1 , if possible.
Marked response: yes (1)

Exam item: Also COc1ccc([C@@H](O)c2cc(-c3ncnc4cc(N5CCOCC5)ccc34)c(F)cc2Cl)nn1 + Cc1[nH]c2ccc(F)cc2c1-c1nc2c3cccnc3c3ncccc3c2[nH]1 , if possible.
Marked response: yes (1)

====

Listing of entries alongside the reported IC50.
# System: 435261-313-R-J1-PDC complex spheroid viability
# Assay method text: Anticancer human tumor 435261-313-R-J1-PDC cell line growth inhibition [GQUAD];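 also: spheroids exposed to the agents for seven days before readout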
# Condition context: curve of first compound; second compound 1 µM
Numbers only here, please. The scale is nM.

Field: example entries. Status: answers known.
Molecule: CC1COCCN1c1cc(C2(S(C)(=N)=O)CC2)nc(-c2ccnc3[nH]ccc23)n1 (centres undefined) + Cc1[nH]c2ccc(F)cc2c1-c1nc2c3cccnc3c3ncccc3c2[nH]1
IC50 (nM): 1280
--
Molecule: CCCS(=O)(=O)Nc1ccc(F)c(C(=O)c2c[nH]c3ncc(-c4ccc(Cl)cc4)cc23)c1F + Cc1[nH]c2ccc(F)cc2c1-c1nc2c3cccnc3c3ncccc3c2[nH]1
IC50 (nM): 3250
--
Molecule: Cc1[nH]c2ccccc2c1CCNCc1ccc(/C=C/C(=O)NO)cc1 + Cc1[nH]c2ccc(F)cc2c1-c1nc2c3cccnc3c3ncccc3c2[nH]1
IC50 (nM): 106

// next entry
Exam item: Bench note: what IC50 did CCc1c2c(nc3ccc(O)cc13)-c1cc3c(c(=O)n1C2)COC(=O)[C@]3(O)CC + CN(C)c1ccc(Nc2c3ccc(NC(=O)CCN4CCCC4)cc3nc3cc(NC(=O)CCN4CCCC4)ccc23)cc1 show?
Marked response: 104

====

# Tested on: 435261-313-R-J1-PDC complex spheroid viability
# Assay method text: Anticancer human tumor 435261-313-R-J1-PDC cell line growth inhibition [GQUAD];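 also: spheroids exposed to the agents for seven days before readout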;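 as to viability, T/C: percent of vehicle control viability with DMSO wells as 100%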
# Condition context: second compound 0.1 µM; first compound 10 µM; stronger effect = lower value
# Description: DNA G-quadruplex Stabilizer Agents in Combinations in Complex Spheroids A high-throughput screen of multi-cell type tumor spheroids was designed to identify active combinations of DNA G-quadruplex stabilizer agents and targeted small molecules. […] Compounds. […] If the clinical Cmax for an agent had not been determined, the highest concentration tested was 10 microM. […]
Listing of entries alongside the reported viability, T/C.
Numbers only here, please. The scale is %.

Field: example entries. Status: answers known.
Molecule: COc1ncnc(C2CC2)c1-c1ncc2cnn(Cc3ccc(-c4nc(C(F)(F)F)cn4C(C)C)cc3)c2n1 + CN(C)c1ccc(Nc2c3ccc(NC(=O)CCN4CCCC4)cc3nc3cc(NC(=O)CCN4CCCC4)ccc23)cc1
Measurement unit: %
viability, T/C: 91.8
--
Molecule: CC1COCCN1c1cc(C2(O)CC3CCC(C2)O3)c2cnn(-c3ccn[nH]3)c2n1 (stereo not drawn) + Cc1cnc(CNC(=O)c2c(=O)c3ccc(N4CCCN(C)CC4)nc3n3c2sc2ccccc23)cn1
Measurement unit: %
viability, T/C: 10.1

// next entry
Exam item: Bench note: what viability, T/C did Nc1ccn(C2OC(CO)C(O)C2(F)F)c(=O)n1 (stereo not drawn) + Cc1[nH]c2ccc(F)cc2c1-c1nc2c3cccnc3c3ncccc3c2[nH]1 show?
Marked response: 51.9

====

# Test system: 435261-313-R-J1-PDC complex spheroid viability
# Assay method text: Anticancer human tumor 435261-313-R-J1-PDC cell line growth inhibition [GQUAD];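 also: spheroids exposed to the agents for seven days before readout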;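 as to viability, T/C: percent of vehicle control viability with DMSO wells as 100%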
# Condition context: second compound 3.16 µM; first compound 0.1 µM; stronger effect = lower value
Measured metric: viability, T/C (%)
Numbers only here, please. The scale is %.

Field: example entries. Status: answers known.
Compound: C=CC(=O)N1CCN(c2nc(=O)n(-c3c(C)ccnc3C(C)C)c3nc(-c4c(O)cccc4F)c(F)cc23)C(C)C1 (stereo not given) + Cc1cnc(CNC(=O)c2c(=O)c3ccc(N4CCCN(C)CC4)nc3n3c2sc2ccccc23)cn1
System tested: 435261-313-R-J1-PDC complex spheroid viability
viability, T/C, %: 21.6
--
Compound: COc1ccc([C@@H](O)c2cc(-c3ncnc4cc(N5CCOCC5)ccc34)c(F)cc2Cl)nn1 + CN(C)c1ccc(Nc2c3ccc(NC(=O)CCN4CCCC4)cc3nc3cc(NC(=O)CCN4CCCC4)ccc23)cc1
System tested: 435261-313-R-J1-PDC complex spheroid viability
viability, T/C, %: 48
--
Compound: CCCS(=O)(=O)Nc1ccc(F)c(C(=O)c2c[nH]c3ncc(-c4ccc(Cl)cc4)cc23)c1F + Cc1[nH]c2ccc(F)cc2c1-c1nc2c3cccnc3c3ncccc3c2[nH]1
System tested: 435261-313-R-J1-PDC complex spheroid viability
viability, T/C, %: 29.2

Exam item: // map C#Cc1c(F)ccc2cc(O)cc(-c3ncc4c(N5CC6CCC(C5)N6)nc(OCC56CCCN5CC(F)C6)nc4c3F)c12 (stereo not given) + Cc1[nH]c2ccc(F)cc2c1-c1nc2c3cccnc3c3ncccc3c2[nH]1 to recorded viability, T/C (system: 435261-313-R-J1-PDC complex spheroid viability)
Marked response: 42.9

Exam item: Also Nc1ccn(C2OC(CO)C(O)C2(F)F)c(=O)n1 (stereo not given) + Cc1cnc(CNC(=O)c2c(=O)c3ccc(N4CCCN(C)CC4)nc3n3c2sc2ccccc23)cn1 , if possible.
Marked response: 26.2

====

# Tested on: 435261-313-R-J1-PDC complex spheroid viability
# Assay method text: Anticancer human tumor 435261-313-R-J1-PDC cell line growth inhibition [GQUAD];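 also: spheroids exposed to the agents for seven days before readout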;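 as to viability, T/C: percent of vehicle control viability with DMSO wells as 100%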
# Condition context: second compound 0.0316 µM; first compound 0.316 µM; stronger effect = lower value
Please note: viability, T/C exactly at 80% is 0 (no). Only values below 80% get 1 (yes).

Past entries and their recorded results:
Compound: COc1ccc([C@@H](O)c2cc(-c3ncnc4cc(N5CCOCC5)ccc34)c(F)cc2Cl)nn1 + Cc1[nH]c2ccc(F)cc2c1-c1nc2c3cccnc3c3ncccc3c2[nH]1
System tested: 435261-313-R-J1-PDC complex spheroid viability
Group label: 0 (no)
//
Compound: CC1COCCN1c1cc(C2(S(C)(=N)=O)CC2)nc(-c2ccnc3[nH]ccc23)n1 (stereo unspecified) + Cc1[nH]c2ccc(F)cc2c1-c1nc2c3cccnc3c3ncccc3c2[nH]1
System tested: 435261-313-R-J1-PDC complex spheroid viability
Group label: 0 (no)
//
Compound: CC1COCCN1c1cc(-c2ccnn2C)c2ccnc(-c3ccn[nH]3)c2n1 (stereo unspecified) + CN(C)c1ccc(Nc2c3ccc(NC(=O)CCN4CCCC4)cc3nc3cc(NC(=O)CCN4CCCC4)ccc23)cc1
System tested: 435261-313-R-J1-PDC complex spheroid viability
Group label: 1 (yes)
//
Compound: Cc1[nH]c2ccccc2c1CCNCc1ccc(/C=C/C(=O)NO)cc1 + CN(C)c1ccc(Nc2c3ccc(NC(=O)CCN4CCCC4)cc3nc3cc(NC(=O)CCN4CCCC4)ccc23)cc1
System tested: 435261-313-R-J1-PDC complex spheroid viability
Group label: 1 (yes)
//
Compound: CCCS(=O)(=O)Nc1ccc(F)c(C(=O)c2c[nH]c3ncc(-c4ccc(Cl)cc4)cc23)c1F + Cc1[nH]c2ccc(F)cc2c1-c1nc2c3cccnc3c3ncccc3c2[nH]1
System tested: 435261-313-R-J1-PDC complex spheroid viability
Group label: 0 (no)

Now let's try a different one.
Exam item: Field: below-cutoff. Rule: recorded viability, T/C strictly less than 80%. Subject: CC1COCCN1c1cc(C2(O)CC3CCC(C2)O3)c2cnn(-c3ccn[nH]3)c2n1 (stereo unspecified) + CN(C)c1ccc(Nc2c3ccc(NC(=O)CCN4CCCC4)cc3nc3cc(NC(=O)CCN4CCCC4)ccc23)cc1
Marked response: 1 (yes)
